- assay-system: Disintegrin and metalloproteinase domain-containing protein 17 (Sus scrofa)
- Sequence (O77636 whole entry, the tested form may be a part): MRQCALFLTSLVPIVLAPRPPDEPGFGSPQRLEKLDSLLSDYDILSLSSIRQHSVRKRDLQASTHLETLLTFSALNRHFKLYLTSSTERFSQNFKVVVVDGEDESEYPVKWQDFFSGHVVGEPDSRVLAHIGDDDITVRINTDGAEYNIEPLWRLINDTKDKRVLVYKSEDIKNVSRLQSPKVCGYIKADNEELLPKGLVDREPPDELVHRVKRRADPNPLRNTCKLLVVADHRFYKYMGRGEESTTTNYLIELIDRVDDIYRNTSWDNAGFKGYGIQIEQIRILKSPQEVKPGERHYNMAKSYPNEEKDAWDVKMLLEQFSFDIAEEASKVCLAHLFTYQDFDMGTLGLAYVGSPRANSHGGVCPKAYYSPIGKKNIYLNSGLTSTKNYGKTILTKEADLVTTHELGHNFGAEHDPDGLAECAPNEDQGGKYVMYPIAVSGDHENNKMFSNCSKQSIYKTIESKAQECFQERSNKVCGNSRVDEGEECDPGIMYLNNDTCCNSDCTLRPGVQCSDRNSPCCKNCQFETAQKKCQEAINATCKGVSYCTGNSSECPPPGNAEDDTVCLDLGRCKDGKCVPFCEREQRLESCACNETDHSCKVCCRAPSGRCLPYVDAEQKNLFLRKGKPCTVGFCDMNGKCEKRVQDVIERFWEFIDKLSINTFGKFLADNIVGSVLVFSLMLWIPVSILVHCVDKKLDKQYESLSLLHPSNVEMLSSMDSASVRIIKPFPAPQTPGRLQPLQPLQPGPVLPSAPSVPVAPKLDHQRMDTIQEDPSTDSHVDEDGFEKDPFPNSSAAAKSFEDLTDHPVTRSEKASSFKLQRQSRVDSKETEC
observation-type: Ki (nM)
Unit nM implied. Number only.

Query string: Which Ki is listed for `Cc1cc(COc2ccc(C(=O)N[C@@]3(CC(=O)NO)C[C@@H](C)N[C@@H](C)C3)cc2)c2ccccc2n1` ?
Result string: 2.8

---

- assay-system: Interstitial collagenase (Homo sapiens)
- Sequence (P03956 whole entry): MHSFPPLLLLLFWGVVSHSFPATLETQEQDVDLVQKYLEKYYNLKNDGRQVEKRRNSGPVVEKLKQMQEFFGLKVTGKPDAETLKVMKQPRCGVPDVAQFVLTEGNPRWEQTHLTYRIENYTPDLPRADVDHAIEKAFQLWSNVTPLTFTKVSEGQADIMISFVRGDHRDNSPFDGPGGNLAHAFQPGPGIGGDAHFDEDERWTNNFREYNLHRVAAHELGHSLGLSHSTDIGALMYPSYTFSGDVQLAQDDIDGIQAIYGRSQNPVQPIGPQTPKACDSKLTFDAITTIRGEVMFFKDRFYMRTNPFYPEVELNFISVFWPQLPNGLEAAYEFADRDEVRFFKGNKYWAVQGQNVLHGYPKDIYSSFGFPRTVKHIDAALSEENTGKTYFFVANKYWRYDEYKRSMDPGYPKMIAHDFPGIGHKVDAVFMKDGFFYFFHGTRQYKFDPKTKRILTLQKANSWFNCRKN
pIC50: −log10 of the molar value.
observation-type: pIC50

Query string: // pIC50 lookup, key: `Cc1cc(C#N)ccc1N1CCN(S(=O)(=O)CC2(C(=O)NO)CCN(C(=O)O[C@@H]3CCOC3)CC2)CC1`
Result string: < 5.30

Query string: What value of pIC50 has been recorded for this entry: `COc1c(Br)ccc2oc(COc3ccc(-c4ccc(S(=O)(=O)N[C@@H](C(=O)O)C(C)C)cc4)cc3)c(C)c12`
Result string: < 3.40

Query string: Please give the measured pIC50 for this molecule: `COC(=O)N1CC2(CC2)C[C@H](C(=O)NO)[C@H]1C(=O)N1CC=C(c2ccccc2)CC1`
Result string: < 5.30

Data provenance is ChEMBL document CHEMBL1141723.
